# tgt: integrin α4β7 (RPMI8866 human cells adhering to MAdCAM-1) (Homo sapiens, UniProt P13612+P26010)
# Construct: RMP18866 cells, which express integrin α4β7; host or cells: RPMI8866
# Sequence (P13612 34-1032): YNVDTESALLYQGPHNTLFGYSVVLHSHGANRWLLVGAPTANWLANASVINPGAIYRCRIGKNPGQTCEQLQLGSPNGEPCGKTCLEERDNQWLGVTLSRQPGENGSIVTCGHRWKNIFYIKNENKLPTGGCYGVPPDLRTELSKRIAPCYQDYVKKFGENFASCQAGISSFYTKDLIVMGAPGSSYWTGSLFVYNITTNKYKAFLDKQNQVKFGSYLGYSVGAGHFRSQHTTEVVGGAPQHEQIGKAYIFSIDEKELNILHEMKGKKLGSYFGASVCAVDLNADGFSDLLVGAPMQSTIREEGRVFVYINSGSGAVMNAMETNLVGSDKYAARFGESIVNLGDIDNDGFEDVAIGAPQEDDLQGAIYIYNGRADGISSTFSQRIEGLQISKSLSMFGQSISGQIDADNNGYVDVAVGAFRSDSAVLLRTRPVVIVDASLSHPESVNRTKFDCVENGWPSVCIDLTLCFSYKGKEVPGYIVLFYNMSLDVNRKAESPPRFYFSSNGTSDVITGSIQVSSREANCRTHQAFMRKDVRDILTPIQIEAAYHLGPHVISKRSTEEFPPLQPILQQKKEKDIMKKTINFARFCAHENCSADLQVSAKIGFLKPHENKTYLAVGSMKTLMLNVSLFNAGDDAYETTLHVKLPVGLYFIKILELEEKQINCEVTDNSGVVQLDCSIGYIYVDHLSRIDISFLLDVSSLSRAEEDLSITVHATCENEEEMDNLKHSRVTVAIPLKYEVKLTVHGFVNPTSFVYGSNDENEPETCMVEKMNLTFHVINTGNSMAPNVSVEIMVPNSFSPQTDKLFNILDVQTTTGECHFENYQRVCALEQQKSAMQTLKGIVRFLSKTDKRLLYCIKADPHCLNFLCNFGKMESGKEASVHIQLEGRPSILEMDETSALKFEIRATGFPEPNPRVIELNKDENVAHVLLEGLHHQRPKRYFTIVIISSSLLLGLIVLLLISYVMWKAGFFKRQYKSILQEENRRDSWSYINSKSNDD
# Sequence (P26010 20-798): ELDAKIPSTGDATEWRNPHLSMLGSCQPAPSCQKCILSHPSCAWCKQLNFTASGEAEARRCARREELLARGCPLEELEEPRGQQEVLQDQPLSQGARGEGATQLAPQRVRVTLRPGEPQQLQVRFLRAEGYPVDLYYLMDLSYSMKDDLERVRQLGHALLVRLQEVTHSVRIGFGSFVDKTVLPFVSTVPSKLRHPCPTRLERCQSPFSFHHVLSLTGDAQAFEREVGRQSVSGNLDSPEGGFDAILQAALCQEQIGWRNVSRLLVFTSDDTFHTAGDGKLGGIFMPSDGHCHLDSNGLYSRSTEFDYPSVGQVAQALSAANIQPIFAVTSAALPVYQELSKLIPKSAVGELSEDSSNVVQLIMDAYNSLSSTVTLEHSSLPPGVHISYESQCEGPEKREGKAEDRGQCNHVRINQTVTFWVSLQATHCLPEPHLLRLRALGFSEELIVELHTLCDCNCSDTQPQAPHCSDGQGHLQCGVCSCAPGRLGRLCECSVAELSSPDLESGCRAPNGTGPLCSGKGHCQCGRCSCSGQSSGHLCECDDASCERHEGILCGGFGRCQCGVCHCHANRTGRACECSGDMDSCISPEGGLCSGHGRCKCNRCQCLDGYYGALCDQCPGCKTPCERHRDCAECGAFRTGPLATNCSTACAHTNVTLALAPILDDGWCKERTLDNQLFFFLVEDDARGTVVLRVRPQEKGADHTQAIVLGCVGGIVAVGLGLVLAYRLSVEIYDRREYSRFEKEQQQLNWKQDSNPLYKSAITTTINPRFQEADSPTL
# assay-notes: Integrin α4β7-MAdCAM cell adhesion assay (RPMI8866 cells)
# Type: cell-based
# condition-description: RPMI8866 cells adhering to MAdCAM; read-out: RPMI8866 Adhesion α4β7/MAdCAM IC50

| structure-smiles-string | IC50 |
| --- | --- |
| CC(C)C[C@@H]1NC(=O)[C@H]2Cc3ccccc3CN2C(=O)[C@H](Cc2cccc(CNC(=O)CCCCCCCC(=O)NCc3cccc(C[C@@H]4NC(=O)[C@@H]5CCCN5[C@H](C(=O)NC(C)(C)C)[C@H](C)NC(=O)[C@H]([C@@H](C)O)NC(=O)[C@H](CC(=O)O)NC(=O)[C@H](CC(C)C)NC(=O)[C@H]5Cc6ccccc6CN5C4=O)c3)c2)NC(=O)[C@@H]2CCCN2[C@H](C(=O)NC(C)(C)C)[C@H](C)NC(=O)[C@H]([C@@H](C)O)NC(=O)[C@H](CC(=O)O)NC1=O | 47 nM |

// provenance: patent US11713338B2
